Recorded G1 (percentage of cells in phase of the cell cycle), one value per entry.
# Test system: BJ, B16-F10, T47D, T47Dp53 and HeLa cells
# METHOD: Cell cycle assay (propidium iodide flow cytometry), cell line panel
# Assay type: cell-based
# ASSAY_CONTEXT: 150 nM oligomeric compound, 4.5 μg/ml LIPOFECTIN, after 72 hours, propidium iodide flow cytometry
In the oligonucleotide strings, read from the 5' end, every base follows the letter of its sugar. An asterisk marks phosphorothioate; unmarked linkages are phosphodiester. Other units and linkages are bracketed, terminal groups are in braces. A string of capitals states the bases alone. e = 2'-O-(2-methoxyethyl) (MOE); [5mC] = 5-methylcytosine; d = 2'-deoxy (DNA)
Report as a plain number; the unit % is understood.

Examples from the recorded data:
SUBSTANCE	UNITS_TEXT	MEASURED_NUMBER
327905 (antisense e[5mC]*eA*eG*eA*e[5mC]*eT*e[5mC]*e[5mC]*eG*eG*eT*eG*eG*eA*eA*eT*eG*eA*eA*eG*eG*eA) [compound 327905]	%	56.9
328388 (eT*e[5mC]*e[5mC]*e[5mC]*eA*dT*dA*dG*d[5mC]*dA*dG*dG*dG*d[5mC]*dA*eG*eA*eG*e[5mC]*e[5mC]; antisense) [compound 328388]	%	57.5
328419 (antisense eT*eG*eT*eT*eG*d[5mC]*d[5mC]*dT*dA*dA*d[5mC]*dG*dA*dA*d[5mC]*eA*e[5mC]*eA*eG*eA) [compound 328419]	%	51.2
327922 (antisense eT*e[5mC]*eA*eG*eT*eT*eT*eT*eG*e[5mC]*eA*eT*eG*eG*eA*eT*eT*eT*eG*e[5mC]*eA*e[5mC]*eA) [compound 327922]	%	50.4
327951 (antisense e[5mC]*eA*e[5mC]*eA*eA*eA*e[5mC]*e[5mC]*eA*eT*eT*eA*eT*eG*eT*eG*e[5mC]*eT*eG*e[5mC]*eT*eA) [compound 327951]	%	60.9

Next substance, G1 (percentage of cells in phase of the cell cycle) to be filled in.
Memo: 328436 (antisense eG*eA*eA*eA*eA*dT*dT*dA*dT*dA*dT*dT*dG*dA*d[5mC]*eT*e[5mC]*eT*eG*eA) [compound 328436] , reported G1 (percentage of cells in phase of the cell cycle): 59.2

====

Recorded % cells aneuploid, one value per entry.
# Test system: HeLa cells
# METHOD: Cell cycle assay in HeLa cells
# Assay type: cell-based, human
# ASSAY_CONTEXT: HeLa cells, 150 nM oligomeric compound, 24 hours, relative to untreated control (UTC = 100)
In the oligonucleotide strings, read from the 5' end, every base follows the letter of its sugar. An asterisk marks phosphorothioate; unmarked linkages are phosphodiester. Other units and linkages are bracketed, terminal groups are in braces. A string of capitals states the bases alone. e = 2'-O-(2-methoxyethyl) (MOE); [5mC] = 5-methylcytosine; d = 2'-deoxy (DNA)
Report as a plain number; the unit % is understood.

SUBSTANCE	MEASURED_NUMBER
338809 (antisense CTGCTCCAGAGCCCGAGTCG; all 2'-MOE, all phosphorothioate, methylation of C not given here) [compound 338809]	210

Next substance, % cells aneuploid to be filled in.
% cells aneuploid value, target or system HeLa cells, for 328707 (eG*e[5mC]*eA*eA*e[5mC]*dA*dG*dG*d[5mC]*d[5mC]*dT*d[5mC]*dA*dA*dT*eA*eT*e[5mC]*eT*eT) [compound 328707] : 166
